# System: CP269
# Measurement Notes: qHTS profiling for inhibitors of Plasmodium falciparum proliferation (AID 504749); note: nearly all actives have a fitted effect of over 60% in size
# Assay Setup: P. falciparum in erythrocytes, SYBR Green DNA, 72 h; series mostly up to 28.7 µM
Inconclusive results are not listed. The source made the active and inactive calls. Calls come from the whole dose curve; as a rule, active = well fitted inhibition curve with a large enough effect; inconclusive = small, poorly fitted or top-dose-only effect; inactive = flat fitted curve, though single readings scatter.
The reply should be one of these categories: t for active, f for inactive

Some solved cases for reference:
>>> qualitative_label("Nc1ncn(C2C[C@H](O)[C@@H](CO)O2)c(=O)n1 (some centres undefined)")
"f"
>>> qualitative_label("O=C1C(I)=CC(=C(c2cc(I)c(O)c(I)c2)c2ccccc2C(=O)O)C=C1I")
"f"
>>> qualitative_label("CC1(C)SC2C(NC(=O)C(C(=O)O)c3ccccc3)C(=O)N2C1C(=O)O (centres undefined)")
"f"
>>> qualitative_label("Cc1cn([C@H]2CC(F)[C@@H](CO)O2)c(=O)[nH]c1=O (some centres undefined)")
"f"
>>> qualitative_label("CC1(C)OC[C@@H]2O[C@@]3(C(=O)O)OC(C)(C)O[C@@H]3[C@@H]2O1")
"f"

In: What did the test return for `C/C=C1/NN(CCCN2CCN(c3cccc(Cl)c3)CC2)C(=O)N1CCOc1ccccc1` ?
Out: f

In: What did the test return for C=CCn1c(=O)n(C2OC(CO)C(O)C2O)c2nc(N)[nH]c(=O)c21 (centres undefined) ?
Out: f

In: What did the test return for C/C1=C2/[N-]C(C(CC(N)=O)[C@@]2(C)CCC(=O)NCC(C)OP(=O)([O-])O[C@H]2[C@@H](O)[C@@H](n3cnc4cc(C)c(C)cc43)O[C@@H]2CO)[C@]2(C)N=C(/C(C)=C3N=C(/C=C4N=C1C(CCC(N)=O)C\4(C)C)[C@@H](CCC(N)=O)[C@]\3(C)CC(N)=O)[C@@H](CCC(N)=O)[C@]2(C)CC(N)=O.CC(=O)O.[Co] (some centres undefined) ?
Out: f

In: What did the test return for C=CCN1CC(C(=O)N(CCCN(C)C)C(=O)NCC)CC2c3cccc4[nH]cc(c34)CC21 (centres undefined) ?
Out: f

In: What did the test return for `CCN(CC)C(=O)[C@@]1(c2ccccc2)C[C@@H]1CN` ?
Out: f

In: What did the test return for `CC(C)(C)NC[C@H](O)CSc1nc(-c2ccc(C(N)=O)s2)cs1` ?
Out: f

In: What did the test return for `C=C1/C(=C\C=C2/CCC[C@]3(C)[C@@H]([C@H](C)/C=C/[C@@H](O)C4CC4)CC[C@@H]23)C[C@@H](O)C[C@@H]1O` ?
Out: f

In: What did the test return for `CC1=C(/C=C/C(C)=C\C=C\C(C)=C\C=C\C=C(C)\C=C\C=C(C)\C=C\C2=C(C)C[C@@H](O)CC2(C)C)C(C)(C)C[C@H](O)C1` ?
Out: f

In: What did the test return for `C[C@H](O)[C@@H]1C(=O)N2C(C(=O)O)=C(SCCN=CN)C[C@@H]12` ?
Out: f

In: What did the test return for `Clc1ccc(CS[C@@H](Cn2ccnc2)c2ccc(Cl)cc2Cl)cc1` ?
Out: t

In: What did the test return for `Cc1ccccc1N1C(=O)c2cc(N)ccc2N/C1=C\F` ?
Out: f

In: What did the test return for `NC(=O)OC[C@@H]1[C@H](NC(=O)/C(=N/OCC(=O)O)c2csc(N)n2)C(=O)N1S(=O)(=O)O` ?
Out: f

In: What did the test return for Cc1ccc(/C=C2/C(=O)C3(C)CCC2C3(C)C)cc1 (centres undefined) ?
Out: f

In: What did the test return for `CO/N=C(/C(=O)N[C@@H]1C(=O)N2C(C(=O)O)=C(C[n+]3ccc(N)n3CCO)CS[C@H]12)c1csc(N)n1` ?
Out: f

// provenance: PubChem BioAssay (NCATS)
